Parameter pKd: see the listing below.
# Measured on: T1, CD30 fused to the Fc region of IgG1 (R&D Systems) (UniProt P28908 19-379)
# T1 sequence (looked up): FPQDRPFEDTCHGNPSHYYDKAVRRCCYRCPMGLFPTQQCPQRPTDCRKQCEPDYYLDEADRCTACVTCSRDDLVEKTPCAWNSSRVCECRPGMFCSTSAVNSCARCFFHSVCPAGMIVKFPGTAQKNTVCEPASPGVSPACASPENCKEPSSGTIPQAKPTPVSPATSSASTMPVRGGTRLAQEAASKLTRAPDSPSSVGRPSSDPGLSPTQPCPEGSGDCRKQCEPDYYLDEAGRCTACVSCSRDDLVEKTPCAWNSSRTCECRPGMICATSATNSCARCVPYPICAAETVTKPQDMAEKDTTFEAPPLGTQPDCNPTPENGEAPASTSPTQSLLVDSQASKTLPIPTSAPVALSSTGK
# Protocol description: SPR, CD30-Fc on Protein A chip
pKd: −log10 of the molar value.

{"Binder": "AC10 H3/L1 full length antibody (antibody, V domains shown) VH: QIQLVQSGPEVKKPGASVKVSCKASGYTFTDYYITWVRQAPGQGLEWMGWIYPGSGNTKYNEKFQGRFVFSVDTSASTAYLQISSLKAEDTAVYFCANYGNYWFAYWGQGTLVTVSS VL: DIVLTQSPATLSLSPGERATLSCRASQSVDFDGDSYMNWYQQKPGQPPKVLIYAASNLESGIPARFSGSGSGTDFTLTISSLQPEDFATYYCQQSNEDPWTFGGGTKVEIK", "pKd": 8.61}
{"Binder": "AC10 H2/L0 full length antibody (antibody, V domains shown) VH: QIQLVESGGGLVKPGGSLRLSCAASGYTFTDYYITWVRQAPGQGLEWMGWIYPGSGNTKYNEKFQGRVTMTVDTSTSTAYMELSSLRSEDTAVYFCANYGNYWFAYWGQGTLVTVSS VL: DIVLTQSPASLAVSLGQRATISCKASQSVDFDGDSYMNWYQQKPGQPPKVLIYAASNLESGIPARFSGSGSGTDFTLNIHPVEEEDAATYYCQQSNEDPWTFGGGTKLEIK", "pKd": 8.10}
{"Binder": "AC10 H0/L3 full length antibody (antibody, V domains shown) VH: QIQLQQSGPEVVKPGASVKISCKASGYTFTDYYITWVKQKPGQGLEWIGWIYPGSGNTKYNEKFKGKATLTVDTSSSTAFMQLSSLTSEDTAVYFCANYGNYWFAYWGQGTQVTVSA VL: DIVLTQSPDSLAVSLGERATINCKASQSVDFDGDSYMNWYQQKPGQPPKVLIYAASNLESGIPARFSGSGSGTDFTLTINSLEAEDAATYYCQQSNEDPWTFGGGTKVEIK", "pKd": 8.52}
{"Binder": "AC10 H0/L1 full length antibody (antibody, V domains shown) VH: QIQLQQSGPEVVKPGASVKISCKASGYTFTDYYITWVKQKPGQGLEWIGWIYPGSGNTKYNEKFKGKATLTVDTSSSTAFMQLSSLTSEDTAVYFCANYGNYWFAYWGQGTQVTVSA VL: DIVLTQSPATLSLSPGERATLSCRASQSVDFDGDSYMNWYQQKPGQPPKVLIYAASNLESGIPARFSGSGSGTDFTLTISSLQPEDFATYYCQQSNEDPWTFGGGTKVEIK", "pKd": 8.48}
{"Binder": "AC10 H1/L0 full length antibody (antibody, V domains shown) VH: QIQLVQSGPEVKKPGASVKVSCKASGYTFTDYYITWVRQAPGQGLEWMGWIYPGSGNTKYNEKFQGRVTITVDTSASTAYMELSSLRSEDTAVYFCANYGNYWFAYWGQGTLVTVSS VL: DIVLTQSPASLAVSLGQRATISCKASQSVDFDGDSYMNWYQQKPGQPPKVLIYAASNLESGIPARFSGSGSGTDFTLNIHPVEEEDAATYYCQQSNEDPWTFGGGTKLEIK", "pKd": 8.19}
{"Binder": "AC10 H3/L0 full length antibody (antibody, V domains shown) VH: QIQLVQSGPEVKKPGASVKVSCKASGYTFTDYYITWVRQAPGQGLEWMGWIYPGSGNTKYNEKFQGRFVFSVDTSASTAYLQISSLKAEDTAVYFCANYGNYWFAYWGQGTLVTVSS VL: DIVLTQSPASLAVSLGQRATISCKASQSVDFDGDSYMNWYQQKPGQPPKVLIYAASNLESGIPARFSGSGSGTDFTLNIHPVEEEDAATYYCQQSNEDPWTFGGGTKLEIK", "pKd": 8.51}
{"Binder": "AC10 H2/L1 full length antibody (antibody, V domains shown) VH: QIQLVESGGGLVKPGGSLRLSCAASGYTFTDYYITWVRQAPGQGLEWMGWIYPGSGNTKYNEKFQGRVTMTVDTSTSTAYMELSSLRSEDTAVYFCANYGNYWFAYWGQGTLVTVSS VL: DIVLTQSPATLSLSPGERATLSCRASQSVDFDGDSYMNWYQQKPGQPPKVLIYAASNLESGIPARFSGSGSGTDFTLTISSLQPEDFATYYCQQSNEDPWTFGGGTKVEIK", "pKd": 8.02}
{"Binder": "AC10 H2/L3 full length antibody (antibody, V domains shown) VH: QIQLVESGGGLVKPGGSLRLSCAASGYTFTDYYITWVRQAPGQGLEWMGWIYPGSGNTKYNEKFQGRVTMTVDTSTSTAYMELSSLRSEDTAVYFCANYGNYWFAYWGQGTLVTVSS VL: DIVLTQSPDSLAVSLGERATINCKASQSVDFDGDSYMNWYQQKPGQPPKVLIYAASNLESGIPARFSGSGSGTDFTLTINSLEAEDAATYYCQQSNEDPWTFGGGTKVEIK", "pKd": 8.17}
{"Binder": "AC10 H1/L3 full length antibody (antibody, V domains shown) VH: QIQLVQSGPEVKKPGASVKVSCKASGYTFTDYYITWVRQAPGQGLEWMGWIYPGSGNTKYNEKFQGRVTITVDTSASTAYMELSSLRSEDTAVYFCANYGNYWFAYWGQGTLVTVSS VL: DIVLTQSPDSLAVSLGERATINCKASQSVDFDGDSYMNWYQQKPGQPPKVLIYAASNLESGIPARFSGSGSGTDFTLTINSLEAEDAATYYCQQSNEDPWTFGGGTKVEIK", "pKd": 8.29}
{"Binder": "AC10 H3/L3 full length antibody (antibody, V domains shown) VH: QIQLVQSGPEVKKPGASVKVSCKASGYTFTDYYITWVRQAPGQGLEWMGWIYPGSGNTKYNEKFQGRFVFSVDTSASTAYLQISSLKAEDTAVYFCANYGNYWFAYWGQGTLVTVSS VL: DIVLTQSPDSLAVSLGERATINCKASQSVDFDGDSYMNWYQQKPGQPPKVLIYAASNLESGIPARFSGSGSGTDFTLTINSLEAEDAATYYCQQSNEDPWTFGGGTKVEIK", "pKd": 8.63}
